study.system: Cytochrome P450 2D6 (Homo sapiens, UniProt P10635);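 further: CYP2D6 member of a cytochrome P450 panel assay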
Sequence (P10635 whole entry): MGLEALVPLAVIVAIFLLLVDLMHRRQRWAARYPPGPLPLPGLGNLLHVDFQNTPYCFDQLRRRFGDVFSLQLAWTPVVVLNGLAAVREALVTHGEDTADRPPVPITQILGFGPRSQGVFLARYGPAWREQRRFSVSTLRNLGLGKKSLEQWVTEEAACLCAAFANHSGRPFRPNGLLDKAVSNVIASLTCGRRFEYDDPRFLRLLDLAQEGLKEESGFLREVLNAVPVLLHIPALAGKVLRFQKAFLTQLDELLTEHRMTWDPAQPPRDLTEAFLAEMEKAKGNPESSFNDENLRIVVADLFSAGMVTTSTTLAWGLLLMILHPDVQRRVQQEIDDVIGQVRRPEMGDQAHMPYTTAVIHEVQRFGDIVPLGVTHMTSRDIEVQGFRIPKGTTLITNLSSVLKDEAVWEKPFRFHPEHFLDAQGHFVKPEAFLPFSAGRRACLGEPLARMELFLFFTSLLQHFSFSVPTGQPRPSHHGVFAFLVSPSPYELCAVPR
Documented AC50 across a set of molecules

query: Kindly indicate its recorded AC50. Item: "CCOc1cccc(NC(=O)CSc2nc(C)c3c(c2C#N)CCCC3)c1"
result: 0.0794 µM (inconclusive)

More entries:
query: Specify reported AC50 for the molecule shown: "O=C(O)[C@@H]1C[C@@H](C(=O)O)N1"
result: 39.8 µM (inconclusive)

query: For the molecule "CN(C)C(=O)c1ccc(-c2nccc(NCc3cccs3)n2)cc1" , give its measured AC50 value.
result: 20 µM (inconclusive)

query: Given "Cc1cccc(CNc2ccnc(-c3cccc(C#N)c3)n2)c1" , respond with its AC50.
result: 25.1 µM (inconclusive)

query: Report AC50 for "C[C@@H](C(=O)O)c1ccc(C(=O)c2ccccc2)s1"
result: 7.94 µM (inconclusive)

query: Answer with the recorded AC50 of "CCCCCCCCCOc1ccc2[nH]cc(CCN)c2c1" only.
result: 25.1 µM (inconclusive)

====

In this section, each of the compounds is paired with its reported IC50.
study.system: Polyadenylate-binding protein 1 (Homo sapiens)
Sequence (P11940 whole entry): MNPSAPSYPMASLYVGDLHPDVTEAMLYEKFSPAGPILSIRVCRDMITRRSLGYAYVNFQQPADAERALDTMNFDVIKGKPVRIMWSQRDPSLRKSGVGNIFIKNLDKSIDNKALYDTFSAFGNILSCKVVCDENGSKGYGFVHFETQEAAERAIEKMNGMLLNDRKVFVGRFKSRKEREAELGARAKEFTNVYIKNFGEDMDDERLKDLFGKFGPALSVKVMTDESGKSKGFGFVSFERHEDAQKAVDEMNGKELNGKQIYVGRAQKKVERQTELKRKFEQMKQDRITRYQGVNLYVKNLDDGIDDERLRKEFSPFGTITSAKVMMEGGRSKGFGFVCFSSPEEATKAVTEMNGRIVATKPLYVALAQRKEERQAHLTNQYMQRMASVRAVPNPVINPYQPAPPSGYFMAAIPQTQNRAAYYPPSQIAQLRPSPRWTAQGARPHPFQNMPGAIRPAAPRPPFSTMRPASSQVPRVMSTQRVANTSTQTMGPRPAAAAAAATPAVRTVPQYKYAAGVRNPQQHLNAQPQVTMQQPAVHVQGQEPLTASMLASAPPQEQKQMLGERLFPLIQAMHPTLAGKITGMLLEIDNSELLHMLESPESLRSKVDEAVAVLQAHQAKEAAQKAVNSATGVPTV
test.protocol: PABP1 MLLE–PAM2 binding inhibitor potency, dose response, biochemical, fluorescence polarization, FITC-PAM2 peptide (AID 602259)
Format: functional
run.parameters: read-out: IC50_Mean
Active and inactive are the calls of the source.

query: In one line, give reported IC50 of the entry "c1coc(-c2nn3c(Cn4nnc5ccccc54)nnc3s2)c1" .
result: > 66 µM (inactive)

More entries:
query: Provide only the value of recorded IC50 for CCOc1ccc(N2C(=O)CC(Sc3ccccc3C(=O)O)C2=O)c([N+](=O)[O-])c1 (stereo unspecified)
result: > 66 µM (inactive)

query: Assign IC50 to the following record: CCCOC(=O)c1c(NC(=O)C2CCCO2)sc(C(=O)OC)c1C (stereo unspecified)
result: > 66 µM (inactive)

query: Recall and state the measured IC50 for "CCOc1cc(C2C3=C(CCCC3=O)N(CC(=O)O)C3=C2C(=O)CCC3)ccc1OC" .
result: > 66 µM (inactive)

query: Return IC50 (reported value) for this compound: "COc1ccc(N2C3=C(CC4=C2CCCC4=O)C(=O)CCC3)cc1"
result: > 66 µM (inactive)

====

study.system: Eukaryotic translation initiation factor 4E (Mus musculus, UniProt P63073)
Sequence (P63073 whole entry): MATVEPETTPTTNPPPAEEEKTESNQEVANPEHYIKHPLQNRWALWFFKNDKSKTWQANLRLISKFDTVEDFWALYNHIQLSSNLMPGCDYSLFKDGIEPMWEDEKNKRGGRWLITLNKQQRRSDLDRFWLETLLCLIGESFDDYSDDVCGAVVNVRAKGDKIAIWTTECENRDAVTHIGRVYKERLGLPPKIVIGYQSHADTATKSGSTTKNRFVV
test.protocol: eIF4E–eIF4G protein interaction inhibitors, dose response, biochemical, TR-FRET (AID 855);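 further: potency for disrupting eIF4E binding to eIF4GI seen as loss of FRET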
Type: functional
Activity calls are given as the source filed them.
Returns: one label drawn from 1 (active), 0 (inactive)

Study these solved cases before continuing.
query: Would you mind telling me which call this test gave "COc1ccc(CC(=O)Nc2nnc(C(C)C)s2)cc1" ?
result: 0

query: Per the records of this test, what outcome belongs to Fc1ccc(C2CCCN2Cc2nc(Cc3ccccc3)no2)cc1 (stereo not given) ?
result: 0

query: In this assay, the call recorded for COc1cc2cc(C(c3nnnn3C3CCCC3)N(C)C3CCCCC3)c(O)nc2cc1OC (stereo not given) was what?
result: 0

query: What was the test verdict on "Oc1ccc(-c2[nH]ncc2-c2cccc3cccnc23)c(O)c1" ?
result: 0

Now consider a different molecule.
query: Name the outcome recorded for O=C(O)CCCCC1CCSS1 (stereo not given) in the assay.
result: 1

====

Examples of compounds with documented EC50 follow.
test.protocol: NIH-3T3 fibroblast cytotoxicity, dose response, cytotoxicity control, cell-based, fluorescence, Alamar Blue, secondary assay (AID 2327);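 further: NIH-3T3 mouse fibroblasts cultured with fluconazole at 8 µg/mL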
Format: functional
Active and inactive are the calls of the source.

query: State its EC50 for this compound: CN1CCN(C(c2ccc(C(F)(F)F)cc2)c2cc(Cl)c3cccnc3c2O)CC1 (stereo unspecified)
result: 10.9 µM (inconclusive)

New cases:
query: Consider the compound "Cc1ccc(C(=O)Nc2cccc(-c3cn4ccccc4n3)c2)cc1" . State its measured EC50.
result: > 150 µM (inactive)

query: For the compound "O=C(N/N=C/c1cc2c3c(c1O)CCCN3CCC2)c1ccccc1O" , give its reported EC50.
result: 23.7 µM (active)

query: Look up EC50 of CC1(C)C2CCC1(C)C(OCC[N+](C)(C)CC(=O)OC1CCCCC1)C2 (stereo unspecified) and report it.
result: > 150 µM (inactive)

query: Specify EC50 for "CCNc1nc(NC(C)C)nc(NC(C)(C)C)n1" and stop.
result: > 150 µM (inconclusive)

query: Specify reported EC50 for the compound shown: "Oc1ccc(N=Nc2ccc3c(c2)OCCO3)c2ncccc12"
result: > 150 µM (inconclusive)
